- SETUP CONDITIONS: in acetone, 278.15 K
ATTRIBUTE MEASURED: solubility (mole fraction)
Give your answer as a number; write no unit.

Ask: Record request: solubility (mole fraction) value, item `Clc1ncnc2[nH]ccc12`
Result: 0.0146

* * *

- SETUP CONDITIONS: in n-propanol, 308.15 K
ATTRIBUTE MEASURED: solubility (mole fraction)

Ask: Find the recorded solubility (mole fraction) belonging to `Clc1ncnc2[nH]ccc12` and report it.
Result: 0.0235
